Experiment: yeast display, Sf9 membrane polyspecificity reagent, FACS + sequencing; frameworks hold sequencing errors
measure: polyreactivity (PSR sort gate)

Please review the following examples before continuing.
{"constructSequence": "QVQLVESGGVLVQAGGSLRLSCAASGIIFFYNAMGWYRQAPGKERELVAAISARGGRTYYADSVKGRFTISRDNAKNTVYLQMNSLKPEDTAVYYCNAYRYGWEDMDYWGQGTQVTVSS", "dataValue": "high polyreactivity"}
{"constructSequence": "QVQLVESGGGLVQAGGSLRLSCAASGSLFGANAMGWYRQAPGKERELVAAISSNGDDTYADSVKGRFTISRDNAKNTVYLQMNSLKPEDTAVYYCNKRPWWWGGDDYWGQGTQVTVSS", "dataValue": "low polyreactivity"}
{"constructSequence": "QVQLVESGGGLVQAGGSLRLSCAASGNTFIPNAMGWYRQAPGKERELVAAIRASGGSTYYADSVKGRFTISRDNAKNTVYLLMNSLKPEDTAVYYCNDDIWYKTYDYWGQGTQVTVSS", "dataValue": "low polyreactivity"}
{"constructSequence": "QDQLVVSGGGLFQAVGSLRLICAASGIFRSYAMGWYRQAPGKERELVAAITGGASGTYYADSVKGRFTISRDNAKNTVYLQMNSLKPEDTAVYFCAAVNRVYFPFRLQVIYGSWGQGTQVTVSS", "dataValue": "high polyreactivity"}
{"constructSequence": "QVQLVESGGGLVQAGGSLRLSCAASGFTFFGYAMGWYRQAPGKERELVATISDTGGSTYADSVKGRFTISRDNAKNTVYLQMNSLKPEDTAVYYFNARSVFYSMDYWGQGTQVTVSS", "dataValue": "low polyreactivity"}
{"constructSequence": "QVQIVESGGAFVQAGGSLRLRCEASGSTFVNKDMGWSRPAPGKEREFVAAIRNTGGRTYYADSVKGRFTISRDNAKNSVYLQMNSLKPEDTAVYYCAAVSRVRTLWRMDYWGQGTQVTVSS", "dataValue": "high polyreactivity"}
{"constructSequence": "QVQLVESGGGLVQPGGSLRLSCAASGSIFGYNAMGWYRPAPGKERELVAVITRSDGSTYYADSVKGRFTISRDNAKNTVYLQMNSLKPEDTAVYYCNAETHVYYWGVVIYEYNYWGQGTQVTVSS", "dataValue": "low polyreactivity"}
{"constructSequence": "QVQLVESGGGLVQAGGSLRLSCAASGNTFREYGMGWYRQAPGKERELVAAISSTGSTNYADSVKGRFTISRDNAKNTVYLQMNSLKPEDTAVYYCNRDRVWGSGVRTRGDYWGQVTQVTVSS", "dataValue": "low polyreactivity"}
{"constructSequence": "QVQLVESGGGLVQAGGSLRLRCAASGSTFAYYAMGWYRQAPGKERELVAAITASATNTYYADSVKGRFTISRDHAKNTVYLQMNSLKPEDTAVYYCAADDVDVEHQASWDDYDSWGQGTQVTVSS", "dataValue": "low polyreactivity"}
{"constructSequence": "QVQLVESGGGLVQAGGSLRLSCAASGSIFVFYAMGWYRQAPGKERELVAAISSVGSTYYADSVKGRFTISRDNAKNTVYLQMNSLKPEDTAVYYCAAVTYYSGYYWGQGTQVTVSS", "dataValue": "low polyreactivity"}

Specify measured polyreactivity (PSR sort gate) for "QVQLVESAGGLVQAGGSLRLSCAASGSILPSNAMGWYRQATGKERELVAGLSERGSSTYYADSVKGRFTISRDNAKNTVYLQMNSLKPEDTAVYYCAADDVGRYWSSTHNWARGEYWGQGTHVTVSS" .
low polyreactivity
